Value source: patent US20250073248A1

# System: Pseudomonas aeruginosa 01 (PA01)
# run description: MIC and MBC, broth microdilution, PA01 (Table 1)
# Type: cell-based
# test parameters: Pseudomonas aeruginosa, first value of cell
property measured: MIC (µg/mL)

[[record]]
molecule = "CCCCCCCCCCCC(=O)OCC(O)COC(=O)CC[C@@H](C)[C@H]1CC[C@H]2[C@@H]3[C@H](OC(=O)CCN)C[C@@H]4C[C@H](OC(=O)CCN)CC[C@]4(C)[C@H]3C[C@H](OC(=O)CCN)[C@]12C (stereo partly shown) [CSA-4112]"
censoring_operator = "="
val = 64

[[record]]
molecule = "CCCCCCCCCC(=O)OC[C@@H](O)COC(=O)CC[C@@H](C)[C@H]1CC[C@H]2[C@@H]3[C@H](OC(=O)CCN)C[C@@H]4C[C@H](OC(=O)CCN)CC[C@]4(C)[C@H]3C[C@H](OC(=O)CCN)[C@]12C [CSA-4110R]"
censoring_operator = "="
val = 4

[[record]]
molecule = "CCCCCCCCCC(=O)OCC(O)COC(=O)CC[C@@H](C)[C@H]1CC[C@H]2[C@@H]3[C@H](OC(=O)CCN)C[C@@H]4C[C@H](OC(=O)CCN)CC[C@]4(C)[C@H]3C[C@H](OC(=O)CCN)[C@]12C (stereo partly shown) [CSA-4110]"
censoring_operator = "="
val = 8

[[record]]
molecule = "CCCCCCCC(=O)OCC(COC(=O)CC[C@@H](C)[C@H]1CC[C@H]2[C@@H]3[C@H](OC(=O)CCN)C[C@@H]4C[C@H](OC(=O)CCN)CC[C@]4(C)[C@H]3C[C@H](OC(=O)CCN)[C@]12C)OC(=O)CCCCCCC (stereo partly shown) [CSA-4208]"
censoring_operator = "="
val = 64

[[record]]
molecule = "CCCCCC(=O)OCC(COC(=O)CC[C@@H](C)[C@H]1CC[C@H]2[C@@H]3[C@H](OC(=O)CCN)C[C@@H]4C[C@H](OC(=O)CCN)CC[C@]4(C)[C@H]3C[C@H](OC(=O)CCN)[C@]12C)OC(=O)CCCCC (stereo partly shown) [CSA-4206]"
censoring_operator = "="
val = 32

[[record]]
molecule = "CCCC(=O)OCC(COC(=O)CC[C@@H](C)[C@H]1CC[C@H]2[C@@H]3[C@H](OC(=O)CCN)C[C@@H]4C[C@H](OC(=O)CCN)CC[C@]4(C)[C@H]3C[C@H](OC(=O)CCN)[C@]12C)OC(=O)CCC (stereo partly shown) [CSA-4204]"
censoring_operator = "="
val = 64

[[record]]
molecule = "CCCCCCCCCCCCCC(=O)OCC(O)COC(=O)CC[C@@H](C)[C@H]1CC[C@H]2[C@@H]3[C@H](OC(=O)CCN)C[C@@H]4C[C@H](OC(=O)CCN)CC[C@]4(C)[C@H]3C[C@H](OC(=O)CCN)[C@]12C (stereo partly shown) [CSA-4114]"
censoring_operator = ">"
val = 100

[[record]]
molecule = "CCCCCCCCCC(=O)OC[C@H](O)COC(=O)CC[C@@H](C)[C@H]1CC[C@H]2[C@@H]3[C@H](OC(=O)CCN)C[C@@H]4C[C@H](OC(=O)CCN)CC[C@]4(C)[C@H]3C[C@H](OC(=O)CCN)[C@]12C [CSA-4110S]"
censoring_operator = "="
val = 8

[[record]]
molecule = "CCCCCCCCCC(=O)OCC(COC(=O)CC[C@@H](C)[C@H]1CC[C@H]2[C@@H]3[C@H](OC(=O)CCN)C[C@@H]4C[C@H](OC(=O)CCN)CC[C@]4(C)[C@H]3C[C@H](OC(=O)CCN)[C@]12C)OC(=O)CCCCCCCCC (stereo partly shown) [CSA-4210]"
censoring_operator = ">"
val = 100

[[record]]
molecule = "CCCCCCCC(=O)OCC(O)COC(=O)CC[C@@H](C)[C@H]1CC[C@H]2[C@@H]3[C@H](OC(=O)CCN)C[C@@H]4C[C@H](OC(=O)CCN)CC[C@]4(C)[C@H]3C[C@H](OC(=O)CCN)[C@]12C (stereo partly shown) [CSA-4108]"
censoring_operator = "="
val = 64

